- System under test: Human immunodeficiency virus type 1 reverse transcriptase (Human immunodeficiency virus 1)
- Method description: Inhibition of HIV1 wild type reverse transcriptase
Provide the reported log(1/C) of each item.
One number for each entry.

>>> print(df.to_string())
                               entry_smiles  recorded_number
0  Cc1cc(C)c(Nc2nc(Nc3ccc(C#N)cc3)ncc2-c2ccccc2)c(C)c1             7.62
1  N#Cc1ccc(Nc2nccc(Nc3c(Cl)cc(Cl)cc3Cl)n2)cc1             9.15
2  Cc1cc(C)c(Oc2nc(Nc3ccc(C#N)cc3)ncc2Br)c(C)c1             8.26
3  Cc1cc(C#N)cc(C)c1Nc1nc(Nc2ccc(C#N)cc2)ncc1C#N              9.3
4  C=Cc1cnc(Nc2ccc(C#N)cc2)nc1Nc1c(C)cc(C)cc1C              8.6

Go through the list and state log(1/C) for each entry.
1. Cc1cc(Br)c(Nc2ccnc(Nc3ccc(C#N)cc3)n2)c(Br)c1
2. Cc1cc(C#N)cc(C)c1Oc1nc(Nc2ccc(C#N)cc2)ncc1[N+](=O)[O-]
3. Cc1cc(C)c(Oc2ccnc(Nc3ccc(C#N)cc3)n2)c(C)c1
4. Cc1cc(C#N)cc(C)c1Nc1nc(Nc2ccc(C#N)cc2)ncc1Cl

Result block:
9.15
7.74
8.54
8.92

Origin of values: ChEMBL document CHEMBL1153846
